- assay-name: Tanguay_ZF_120hpf_SOMI_legacy: (Legacy) Oregon State University Tanguay Lab 120 Hour Post-fertilization zebrafish Assay for Somite Malformation (AID 2283647)
Records with an inconclusive call do not appear. The source made the active and inactive calls. How the source made its calls: active means hit-call score of the fitted dose curve at least 0.9, where 1 is the maximum; inconclusive means response in the unintended direction; inactive means score below 0.9.
Possible outcomes: t (active), f (inactive)

{"columns": ["compound", "assigned-label"],
 "data": [
  ["Cc1ncc([C@@H](CCCCCCc2ccc3c(n2)NCCC3)CC(=O)O)cn1", "f"],
  ["Nc1ccn([C@@H]2O[C@H](CO)[C@@H](O)[C@@H]2O)c(=O)n1", "f"],
  ["COCc1nnc(-c2ccc[n+]([O-])c2)n1-c1c(Cl)c(Cl)cc2[nH]c(=O)c(=O)[nH]c12", "f"],
  ["O=C1CN(N=Cc2ccc([N+](=O)[O-])o2)C(=O)N1", "f"],
  ["O=C(O)[C@H](O)[C@@H](O)C(=O)O", "f"],
  ["CC(C)CCCCCCOC(=O)C1CCCCC1C(=O)OCCCCCCC(C)C (stereo unspecified)", "f"],
  ["COc1cc(C(C)C)c2c(c1)S(=O)(=O)N(COc1cc(=O)n3cccc(OCCN4CCCCC4)c3n1)C2=O", "f"],
  ["C=CN1CCCC1=O", "f"],
  ["CCCc1ccccc1", "f"],
  ["CCN(CC)C(=S)SSC(=S)N(CC)CC", "t"],
  ["OC[C@H]1O[C@@](CO)(O[C@H]2O[C@H](CO)[C@@H](O)[C@H](O)[C@H]2O)[C@@H](O)[C@@H]1O", "f"]
]}

Provenance of the data: PubChem BioAssay (EPA / NIEHS)
